experiment: Intrinsic clearance in mouse liver microsomes; type: ADME; conditions: read-out: CLH
measurementType: microsomal CLint (µL/min/mg)
One number for each entry, in µL/min/mg.

Record COc1cc(C(F)(F)F)cc(SC)c1C(=O)N[C@@]1(c2ccccc2)CCCN(C)C1 , field microsomal CLint: 54

###

experiment: Ratio of drug level from brain to plasma in mouse at 7.7 mg/kg, po after 1.5 hrs; format: ADME, organism-based; design: dose 7.7 mg/kg, route oral; conditions: brain and plasma, read-out: BPR
measurementType: Kp at 1.5 h
Give bare numbers.

Record COc1cc(C(F)(F)F)cc(SC)c1C(=O)N[C@@]1(c2ccccc2)CCCN(C)C1 , field Kp at 1.5 h: 4.3

Values compiled from ChEMBL document CHEMBL3259663.
